System: T-47D
Test: NCI 60-cell line screen
Assay type: cell-based, human
Conditions: Homo sapiens, T47D
quantityKind: pIC50
The quantity pIC50 is defined as the negative base-10 logarithm of the molar concentration.

O=C(CNc1ccc([N+](=O)[O-])cc1)Nc1nc2ccccc2s1 5.34

For the record `O=C(CN1CCN(CC(=O)Nc2nc3ccccc3s2)CC1)Nc1ccc([N+](=O)[O-])cc1` , what value of pIC50 is listed for T-47D?
5.25

###

Target: PI3Kγ enzyme (Homo sapiens, UniProt P48736)
Sequence (P48736 whole entry): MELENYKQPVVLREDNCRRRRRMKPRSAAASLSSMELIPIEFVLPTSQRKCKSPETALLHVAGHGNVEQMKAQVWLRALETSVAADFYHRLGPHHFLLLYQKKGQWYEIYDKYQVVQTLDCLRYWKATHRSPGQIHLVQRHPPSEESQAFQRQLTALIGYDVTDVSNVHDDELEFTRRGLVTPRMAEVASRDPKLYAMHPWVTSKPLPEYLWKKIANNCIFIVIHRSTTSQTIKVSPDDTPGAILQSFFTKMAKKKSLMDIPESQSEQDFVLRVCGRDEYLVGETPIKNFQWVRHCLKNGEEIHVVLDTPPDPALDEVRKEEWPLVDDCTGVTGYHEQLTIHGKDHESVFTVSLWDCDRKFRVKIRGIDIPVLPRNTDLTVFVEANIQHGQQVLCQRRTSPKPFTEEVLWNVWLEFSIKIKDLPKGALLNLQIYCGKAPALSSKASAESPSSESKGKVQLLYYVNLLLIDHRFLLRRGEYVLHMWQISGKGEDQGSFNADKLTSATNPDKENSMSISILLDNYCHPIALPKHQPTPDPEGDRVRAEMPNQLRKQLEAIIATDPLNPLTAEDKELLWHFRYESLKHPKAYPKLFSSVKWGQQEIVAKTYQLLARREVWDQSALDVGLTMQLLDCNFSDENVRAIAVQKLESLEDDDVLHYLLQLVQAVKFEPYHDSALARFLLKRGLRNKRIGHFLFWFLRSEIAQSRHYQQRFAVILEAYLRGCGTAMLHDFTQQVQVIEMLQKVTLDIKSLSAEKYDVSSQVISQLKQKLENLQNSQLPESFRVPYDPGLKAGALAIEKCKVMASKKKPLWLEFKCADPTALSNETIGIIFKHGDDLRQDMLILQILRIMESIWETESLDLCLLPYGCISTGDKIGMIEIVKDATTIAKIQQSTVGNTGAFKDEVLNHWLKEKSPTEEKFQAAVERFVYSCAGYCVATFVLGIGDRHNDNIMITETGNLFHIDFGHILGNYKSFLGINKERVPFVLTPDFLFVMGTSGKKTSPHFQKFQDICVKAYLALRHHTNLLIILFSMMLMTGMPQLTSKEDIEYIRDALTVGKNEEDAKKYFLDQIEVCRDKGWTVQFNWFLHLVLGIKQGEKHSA
Assay: Adapta universal kinase assay, anti-PI3Kγ activity
Format: biochemical
Conditions: read-out: % of inhibition against PI3Kγ enzyme, point 1
# binarize inhibition at 100 µM: threshold 20% inclusive, high side Satisfied, low side Not satisfied

// below: answered compounds
N=C(N)NS(=O)(=O)c1ccc(NCC(=O)Nc2nc3ccccc3s2)cc1 Satisfied
O=C(CN1CCN(c2ccccn2)CC1)Nc1nc2ccccc2s1 Not satisfied
O=C(CN1CCN(c2cccc(O)c2)CC1)Nc1nc2ccccc2s1 Not satisfied
O=C(CNC1CCCCC1)Nc1nc2ccccc2s1 Satisfied
O=C(CN1CCN(CC(=O)Nc2nc3ccccc3s2)CC1)Nc1ccc([N+](=O)[O-])cc1 Not satisfied

Does the compound `NS(=O)(=O)c1ccc(NCC(=O)Nc2nc3ccccc3s2)cc1` have recorded inhibition at 100 µM that is 20% or more?
Not satisfied

Taken from paper PMC10975593.
